# Test system: NCI-H1944
# test.protocol: relative viability (nuclei count vs DMSO), 5 days (fraction); higher = more cells survive
# condition.info: first compound 0.04 µM
parameter: relative viability
Please give the numeric answer without any surrounding text.

Example entries begin here.
INSERT INTO results (compound, reported) VALUES
  ('Cc1sc2c(c1C)C(c1ccc(Cl)cc1)=N[C@@H](CC(=O)OC(C)(C)C)c1nnc(C)n1-2 [JQ1] + Cc1nc(Nc2ncc(C(=O)Nc3c(C)cccc3Cl)s2)cc(N2CCN(CCO)CC2)n1 [Dasatinib] (partner 0.075 µM)', 0.202),
  ('Cc1sc2c(c1C)C(c1ccc(Cl)cc1)=N[C@@H](CC(=O)OC(C)(C)C)c1nnc(C)n1-2 [JQ1] + Cc1nc(NC(=O)N2CCC[C@H]2C(N)=O)sc1-c1ccnc(C(C)(C)C(F)(F)F)c1 [Alpelisib] (partner 2 µM)', 0.709),
  ('Cc1sc2c(c1C)C(c1ccc(Cl)cc1)=N[C@@H](CC(=O)OC(C)(C)C)c1nnc(C)n1-2 [JQ1] + Nc1ncn([C@H]2C[C@H](O)[C@@H](CO)O2)c(=O)n1 [Decitabine] (partner 2 µM)', 0.438);

For record Cc1sc2c(c1C)C(c1ccc(Cl)cc1)=N[C@@H](CC(=O)OC(C)(C)C)c1nnc(C)n1-2 [JQ1] + NC(=O)Nc1cc(-c2cccc(F)c2)sc1C(=O)N[C@H]1CCCNC1 [AZD7762] (partner 0.2 µM) the listed relative viability is 0.533

---

# System: BEN
# test.protocol: relative viability (nuclei count vs DMSO), 5 days (fraction); higher = more cells survive
# condition.info: first compound 0.08 µM
parameter: relative viability

Example entries begin here.
INSERT INTO assay_data (compound, parameter, reported) VALUES
  ('O=c1[nH]c2ccccc2n1C1CCN(CCCC(c2ccc(F)cc2)c2ccc(F)cc2)CC1 [Pimozide] + Nc1ncn([C@H]2C[C@H](O)[C@@H](CO)O2)c(=O)n1 [Decitabine] (partner 2 µM)', 'relative viability', 0.805),
  ('Cc1cnc(-c2cnc(NCCNc3ccc(C#N)cn3)nc2-c2ccc(Cl)cc2Cl)[nH]1 + COc1cc2c(Oc3ccc(NC(=O)C4(C(=O)Nc5ccc(F)cc5)CC4)cc3F)ccnc2cc1OCCCN1CCOCC1 [Foretinib] (partner 0.25 µM)', 'relative viability', 0.857),
  ('Cc1cnc(-c2cnc(NCCNc3ccc(C#N)cn3)nc2-c2ccc(Cl)cc2Cl)[nH]1 + CC(C)C[C@H](NC(=O)[C@H](Cc1ccccc1)NC(=O)c1cnccn1)B(O)O [Bortezomib] (partner 0.002 µM)', 'relative viability', 0.623),
  ('Cc1cnc(-c2cnc(NCCNc3ccc(C#N)cn3)nc2-c2ccc(Cl)cc2Cl)[nH]1 + C[C@@H](Oc1cc(-c2cnn(C3CCNCC3)c2)cnc1N)c1c(Cl)ccc(F)c1Cl [Crizotinib] (partner 1 µM)', 'relative viability', 0.908);

For record Cc1cnc(-c2cnc(NCCNc3ccc(C#N)cn3)nc2-c2ccc(Cl)cc2Cl)[nH]1 + COc1cccc2cc(-c3nc([C@H]4CC[C@H](C(=O)O)CC4)n4ncnc(N)c34)[nH]c12 [OSI-027] (partner 0.5 µM) the listed relative viability is 0.352

---

As shown below, each of these molecules has a reported relative viability value.
# Test system: NCI-H1944
# test.protocol: relative viability (nuclei count vs DMSO), 5 days (fraction); higher = more cells survive
# condition.info: first compound 0.002 µM

Example entries begin here.
INSERT INTO results (molecule, reported) VALUES
  ('CC(=O)O[C@@]12CO[C@@H]1C[C@H](O)[C@@]1(C)C(=O)[C@H](O)C3=C(C)[C@@H](OC(=O)[C@H](O)[C@@H](NC(=O)OC(C)(C)C)c4ccccc4)C[C@@](O)([C@@H](OC(=O)c4ccccc4)[C@H]21)C3(C)C [Docetaxel] + CC(=O)Nc1cccc(-n2c(=O)n(C3CC3)c(=O)c3c(Nc4ccc(I)cc4F)n(C)c(=O)c(C)c32)c1 [Trametinib] (partner 0.02 µM)', 0.294),
  ('CC(=O)O[C@@]12CO[C@@H]1C[C@H](O)[C@@]1(C)C(=O)[C@H](O)C3=C(C)[C@@H](OC(=O)[C@H](O)[C@@H](NC(=O)OC(C)(C)C)c4ccccc4)C[C@@](O)([C@@H](OC(=O)c4ccccc4)[C@H]21)C3(C)C [Docetaxel] + NC(=O)Nc1cc(-c2cccc(F)c2)sc1C(=O)N[C@H]1CCCNC1 [AZD7762] (partner 0.2 µM)', 0.339),
  ('CC(=O)O[C@@]12CO[C@@H]1C[C@H](O)[C@@]1(C)C(=O)[C@H](O)C3=C(C)[C@@H](OC(=O)[C@H](O)[C@@H](NC(=O)OC(C)(C)C)c4ccccc4)C[C@@](O)([C@@H](OC(=O)c4ccccc4)[C@H]21)C3(C)C [Docetaxel] + COc1cc2c(Oc3ccc(NC(=O)C4(C(=O)Nc5ccc(F)cc5)CC4)cc3F)ccnc2cc1OCCCN1CCOCC1 [Foretinib] (partner 0.25 µM)', 0.692);

For the next question, use this molecule.
For record CC(=O)O[C@@]12CO[C@@H]1C[C@H](O)[C@@]1(C)C(=O)[C@H](O)C3=C(C)[C@@H](OC(=O)[C@H](O)[C@@H](NC(=O)OC(C)(C)C)c4ccccc4)C[C@@](O)([C@@H](OC(=O)c4ccccc4)[C@H]21)C3(C)C [Docetaxel] + Cc1cc(Nc2cc(N3CCN(C)CC3)nc(Sc3ccc(NC(=O)C4CC4)cc3)n2)n[nH]1 [Tozasertib] (partner 0.1 µM) the listed relative viability is 0.235
